- Tested on: Plasmodium falciparum
- protocol_details: Antimalarial activity against chloroquine-resistant/mefloquine-sensitive Plasmodium falciparum W2 by malaria SYBR green 1-based fluorescence (MSF) assay
- Assay type: functional, organism-based
pIC50: −log10 of the molar value.
Returns one of t or f; t when pIC50 is >= 6.

Examples with answers:
1) O=c1c(O)c(-c2ccc(O)c(O)c2)oc2c(CNCCc3ccccc3F)c(O)cc(O)c12 ... t
2) O=c1c(O)c(-c2ccc(O)c(O)c2)oc2c(CNCc3ccc(Cl)cc3)c(O)cc(O)c12 ... t
3) Oc1cc(O)c2c(c1)O[C@H](c1ccc(O)c(O)c1)[C@@H](O)C2 [CIANIDANOL] ... f
4) O=c1c(O)c(-c2ccc(O)c(O)c2)oc2c(CNCc3ccco3)c(O)cc(O)c12 ... f
5) O=c1c(O)c(-c2ccc(O)c(O)c2)oc2c(CNCCc3ccccc3)c(O)cc(O)c12 ... f
6) O=c1c(O)c(-c2ccc(O)c(O)c2)oc2c(CNCCc3ccc(F)cc3)c(O)cc(O)c12 ... t

Note: attention shifts to another entry.
Check if pIC50 >= 6 (inclusive). Item: O=c1c(O)c(-c2ccc(O)c(O)c2)oc2cc(O)cc(O)c12 [QUERCETIN] f

---

- Tested on: Plasmodium falciparum
- protocol_details: Antigametocytocidal activity against Plasmodium falciparum NF54-pfs16-[…] early (1 to 3) gametocyte assessed as viability after 72 hrs by MitoTracker Red CM-H2XRos/micro-plate confocal imaging system
- Type: functional, organism-based
- reported_conditions: NF54, 72 h
value_type: IC50 (µM)
Numbers only, in µM.

Below, 3 compounds whose answers are already recorded.
1) O=c1c(O)c(-c2ccc(O)c(O)c2)oc2c(CNCCc3cccc(Cl)c3)c(O)cc(O)c12 ... 6.79
2) C[C@H]1[C@H](OC(=O)CCC(=O)O)O[C@@H]2O[C@@]3(C)CC[C@H]4[C@H](C)CC[C@@H]1[C@@]24OO3 [ARTESUNATE] ... 0.003
3) O=c1c(O)c(-c2ccc(O)c(O)c2)oc2c(CNCCc3ccc(Cl)cc3Cl)c(O)cc(O)c12 ... 9.67

Fill blank: measured IC50 of the compound `COc1ccc(C[C@H](N)C(=O)N[C@H]2[C@@H](O)[C@H](n3cnc4c(N(C)C)ncnc43)O[C@@H]2CO)cc1` is ____. 0.175

---

Kindly state solubility at 1000 µM for each of the entries shown.
- protocol_details: Aqueous solubility of the compound at 1 mM by UV spectroscopic assay
- Type: physicochemical
- reported_conditions: buffer
Answers are plain numbers, in µM.

1) O=c1c(O)c(-c2ccc(O)c(O)c2)oc2c(CNCCc3ccccc3)c(O)cc(O)c12 ... 41

Hi! Can you tell me solubility at 1000 µM for each of these compounds?
1. O=c1c(O)c(-c2ccc(O)c(O)c2)oc2c(CNCCc3ccc(Cl)cc3)c(O)cc(O)c12
2. O=c1c(O)c(-c2ccc(O)c(O)c2)oc2c(CNCCc3ccc(Cl)cc3Cl)c(O)cc(O)c12
3. O=c1c(O)c(-c2ccc(O)c(O)c2)oc2c(CNCCc3cccc(F)c3)c(O)cc(O)c12
4. O=c1c(O)c(-c2ccc(O)c(O)c2)oc2c(CNCCc3cccc(Cl)c3)c(O)cc(O)c12

1: 99; 2: 168; 3: 275; 4: 199
